Exercise: for every item that follows, state its recorded remaining activity at 30 µM.
biological target: human mAChR M4 (Homo sapiens); construct: expressed in transfected cells; host or cells: CHO-K1 (ATCC), co-transfected with chimeric G protein Gqi5; assay: mAChR M4 cell-based functional assay (calcium flux, antagonism of EC80 acetylcholine response, M4/Gqi5/CHO-K1 cells); conditions: CHO-K1, % ACh maximum at 30 μM; read-out: Human M4 Emin
The answer should read as a number with its unit following.

• [2H]C([2H])([C@H]1COCCO1)N1C[C@H]2C[C@H](Nc3ccc(-c4cnccc4C(F)(F)F)nn3)C[C@H]2C1 = 2%

Below are some compounds; for each one, tell me its remaining activity at 30 µM.
1. [2H]C1([2H])CC(C([2H])([2H])N2C[C@H]3C[C@H](Nc4nnc(-c5cnccc5C(F)(F)F)cc4OC)C[C@H]3C2)CC([2H])([2H])O1
2. [2H]C([2H])([C@H]1CCCCO1)N1C[C@H]2C[C@H](Nc3ccc(-c4cccnc4C(F)(F)F)nn3)C[C@H]2C1
3. [2H]C1([2H])CC(C([2H])([2H])N2C[C@H]3C[C@H](Nc4nnc(-c5cnccc5C(F)(F)F)cc4C)C[C@H]3C2)CC([2H])([2H])O1
4. [2H]C([2H])(N1C[C@H]2C[C@H](Nc3ccc(-c4cnccc4C(F)(F)F)nn3)C[C@H]2C1)C1(C)CCOCC1
5. [2H]C([2H])(C1CCCOC1)N1C[C@H]2C[C@H](Nc3ccc(-c4cnccc4C(F)(F)F)nn3)C[C@H]2C1 (stereo partly drawn)
6. [2H]C([2H])([C@H]1COCCO1)N1C[C@H]2C[C@H](Nc3ccc(-c4cccnc4C(F)(F)F)nn3)C[C@H]2C1
7. FC(F)(F)c1ccncc1-c1ccc(N[C@H]2C[C@@H]3CN(CC4CCOCC4)C[C@@H]3C2)nn1

2%
2%
4%
2%
2%
2%
4%

###

target: human mAChR M4 (Homo sapiens, UniProt P08173); construct: expressed in transfected cells; host or cells: CHO-K1 (ATCC), co-transfected with chimeric G protein Gqi5; assay: mAChR M4 cell-based functional assay (calcium flux, antagonism of EC80 acetylcholine response, M4/Gqi5/CHO-K1 cells); conditions: CHO-K1, % ACh maximum at 30 μM; read-out: Human M4 Emin
assay_metric: remaining activity at 30 µM (%)
One number for each entry, in %.

* [2H]C([2H])([C@@H]1CCCCO1)N1C[C@H]2C[C@H](Nc3ccc(-c4cccnc4C(F)(F)F)nn3)C[C@H]2C1 | 2

Record remaining activity at 30 µM per entry; entries follow.
1. [2H]C([2H])(C1CCOCC1)N1C[C@H]2C[C@H](Nc3ccc(-c4cnc(C(F)(F)F)cc4C(F)(F)F)nn3)C[C@H]2C1
2. [2H]C([2H])(C1CCOCC1)N1C[C@H]2C[C@H](Nc3ccc(-c4cnccc4C(F)(F)F)nn3)C[C@H]2C1
3. [2H]C([2H])(C1CC2(CC2)CO1)N1C[C@H]2C[C@H](Nc3ccc(-c4cccnc4C(F)(F)F)nn3)C[C@H]2C1 (stereo partly shown)
4. [2H]C([2H])(C1CCOCC1)N1C[C@H]2C[C@H](Nc3nnc(-c4cnccc4C(F)(F)F)cc3C)C[C@H]2C1
5. [2H]C1([2H])CC(C([2H])([2H])N2C[C@H]3C[C@H](Nc4ccc(-c5cnccc5C(F)(F)F)nn4)C[C@H]3C2)CC([2H])([2H])O1

26
3
2
4
2

###

Target: human mAChR M4 (Homo sapiens)
Sequence (P08173 1-479): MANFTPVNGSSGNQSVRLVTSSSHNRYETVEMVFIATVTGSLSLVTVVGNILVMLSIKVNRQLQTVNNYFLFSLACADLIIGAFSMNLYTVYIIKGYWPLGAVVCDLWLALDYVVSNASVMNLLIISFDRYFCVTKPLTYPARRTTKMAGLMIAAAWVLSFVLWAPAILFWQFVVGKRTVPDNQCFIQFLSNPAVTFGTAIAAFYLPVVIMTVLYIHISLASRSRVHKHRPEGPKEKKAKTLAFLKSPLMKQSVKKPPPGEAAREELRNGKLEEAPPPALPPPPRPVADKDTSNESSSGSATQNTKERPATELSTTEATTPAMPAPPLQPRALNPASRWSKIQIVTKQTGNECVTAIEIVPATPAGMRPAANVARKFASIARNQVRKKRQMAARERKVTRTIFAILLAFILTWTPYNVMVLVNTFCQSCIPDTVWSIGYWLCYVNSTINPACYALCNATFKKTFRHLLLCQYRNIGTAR
Test: mAChR M4 cell-based functional assay (calcium flux, antagonism of EC80 acetylcholine response, M4/Gqi5/CHO-K1 cells)
Details: decrease of the response elicited by an EC80 concentration of acetylcholine; CHO-K1 cells, Gqi5
Task for the reader: assign each of the following compounds its reported pIC50.
Numbers only, as −log10 of the molar value.

Worked examples, 2 compounds total:
• [2H]C1([2H])CC(C([2H])([2H])N2C[C@H]3C[C@H](Nc4nnc(-c5cnccc5C(F)(F)F)cc4OC)C[C@H]3C2)CC([2H])([2H])O1 = 8.35
• [2H]C([2H])(N1C[C@H]2C[C@H](Nc3ccc(-c4cnccc4C(F)(F)F)nn3)C[C@H]2C1)C1(C)CCOCC1 = 7.82

Now examine the next entry.
// returns reported pIC50 for input [2H]C([2H])(N1C[C@H]2C[C@H](Nc3ccc(-c4cnccc4C(F)(F)F)nn3)C[C@H]2C1)C(F)(F)C1CCOCC1
7.41

###

Target: human mAChR M4 (Homo sapiens, UniProt P08173)
Construct: expressed in transfected cells; host or cells: CHO-K1 (ATCC), co-transfected with chimeric G protein Gqi5
Sequence (P08173 1-479): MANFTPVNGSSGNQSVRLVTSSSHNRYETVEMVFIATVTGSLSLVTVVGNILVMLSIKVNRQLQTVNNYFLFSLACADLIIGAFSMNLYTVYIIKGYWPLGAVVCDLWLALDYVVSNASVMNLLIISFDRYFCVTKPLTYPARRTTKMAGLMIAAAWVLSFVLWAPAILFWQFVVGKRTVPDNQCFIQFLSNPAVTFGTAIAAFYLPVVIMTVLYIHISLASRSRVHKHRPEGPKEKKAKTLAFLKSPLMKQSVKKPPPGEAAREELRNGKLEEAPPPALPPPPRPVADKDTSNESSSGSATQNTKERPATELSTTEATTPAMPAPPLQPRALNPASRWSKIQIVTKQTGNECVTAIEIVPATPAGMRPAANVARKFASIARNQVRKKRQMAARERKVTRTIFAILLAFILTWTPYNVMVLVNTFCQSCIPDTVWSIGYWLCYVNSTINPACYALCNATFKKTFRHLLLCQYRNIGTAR
Experiment: mAChR M4 cell-based functional assay (calcium flux, antagonism of EC80 acetylcholine response, M4/Gqi5/CHO-K1 cells)
Settings: CHO-K1, % ACh maximum at 30 μM; read-out: Human M4 Emin
assay_metric: remaining activity at 30 µM (%)
Give bare numbers, in %.

• [2H]C1([2H])CC(C([2H])([2H])N2C[C@H]3C[C@H](Nc4ccc(-c5cccnc5C(F)(F)F)nn4)C[C@@]3(C)C2)CC([2H])([2H])O1 (racemic) = 3
• [2H]C([2H])(C1CC(C)(C)OC(C)(C)C1)N1C[C@H]2C[C@H](Nc3ccc(-c4cccnc4C(F)(F)F)nn3)C[C@H]2C1 = 2
• [2H]C([2H])(C1CCOCC1(C)C)N1C[C@H]2C[C@H](Nc3nnc(-c4cnccc4C(F)(F)F)cc3OC)C[C@H]2C1 (stereo partly drawn) = 2
• [2H]C([2H])(C1CCCOCC1)N1C[C@H]2C[C@H](Nc3ccc(-c4cccnc4C(F)(F)F)nn3)C[C@H]2C1 (stereo partly drawn) = 2
• [2H]C([2H])(N1C[C@H]2C[C@H](Nc3ccc(-c4cnccc4C(F)(F)F)nn3)C[C@H]2C1)[C@]12CCC[C@H]1OCC2 (racemic) = 4

Form field: reported remaining activity at 30 µM of [2H]C([2H])(C1CCOCC1)N1C[C@H]2C[C@H](Nc3ccc(-c4cnccc4C(F)F)nn3)C[C@H]2C1
4

###

target: UniProtKB P08173; assay: mAChR M4 cell-based functional assay (calcium flux, antagonism of EC80 acetylcholine response, M4/Gqi5/CHO-K1 cells); settings: decrease of the response elicited by an EC80 concentration of acetylcholine; CHO-K1 cells, Gqi5
Field: pIC50. Provide a value for each of the molecules that follow.
Give bare numbers, as −log10 of the molar value.

Study these solved cases before continuing.
* [2H]C1([2H])CC(CN2C[C@H]3C[C@H](Nc4nnc(-c5cnccc5C(F)(F)F)cc4C)C[C@H]3C2)CC([2H])([2H])O1 [Compound 19] | 8.89
* [2H]C([2H])(C1CCOCC1)N1C[C@H]2C[C@H](Nc3ccc(-c4cnccc4C(F)F)nn3)C[C@H]2C1 [Compound 13] | 8.92
* [2H]C([2H])([C@H]1CCOC(C)(C)C1)N1C[C@H]2C[C@H](Nc3ccc(-c4cccnc4C(F)(F)F)nn3)C[C@H]2C1 (single isomer, unassigned) [Compound 61] | 8.51
* [2H]C([2H])(N1C[C@H]2C[C@H](Nc3ccc(-c4cccnc4C(F)(F)F)nn3)C[C@H]2C1)C12COC(C)(C1)C2 [Compound 55] | 8.26
* [2H]C1([2H])CC(CN2C[C@H]3C[C@H](Nc4nnc(-c5cnccc5C(F)(F)F)cc4OC)C[C@H]3C2)CC([2H])([2H])O1 [Compound 23] | 8.41
* [2H]C([2H])(C1CCOCC1)N1C[C@H]2C[C@H](Nc3ccc(-c4cnccc4C(F)(F)F)nn3)C[C@H]2C1 [Compound 2] | 9.39
* [2H]C([2H])(C1CCCCC1)N1C[C@H]2C[C@H](Nc3ccc(-c4cnccc4C(F)(F)F)nn3)C[C@H]2C1 [Compound 10] | 9.25
* [2H]C([2H])(C1CCOCC1(C)C)N1C[C@H]2C[C@H](Nc3ccc(-c4cccnc4C(F)(F)F)nn3)C[C@H]2C1 (some centres unmarked) [Compound 53] | 8.54

# batch size: 2; output pIC50 per entry
1. [2H]C1([2H])CC(C([2H])([2H])N2C[C@H]3C[C@H](Nc4ccc(-c5cnccc5C(F)(F)F)nn4)C[C@@]3(C)C2)CC([2H])([2H])O1 (racemic) [Compound 27]
2. [2H]C([2H])([C@@H]1CCCOC1)N1C[C@H]2C[C@H](Nc3ccc(-c4cnccc4C(F)(F)F)nn3)C[C@H]2C1 [Compound 24]

1. 8.49
2. 8.26

Each recorded value in this set is attributed to patent US20240109873A1.
